Assay: Evaluation of conversion rate to active form in buffer solution (Experimental Example 1)
Type: physicochemical
Conditions: pH6.0, 0 hr
Measured Quantity: Residual rate (%)
Numeric only. Scale: %

Answered cases to consult:
* C[C@H](N)C(=O)O[C@@H]1CN(C)CC[C@@H]1c1c(O)cc(O)c2c(=O)cc(-c3ccccc3Cl)oc12 [Comparative Example 7, reference compound] | 96.4
* CN1CC[C@H](c2c(O)cc(O)c3c(=O)cc(-c4ccccc4Cl)oc23)[C@H](OC(=O)[C@@H](N)CO)C1 [Comparative Example 9, reference compound] | 86.0
* CN1CC[C@H](c2c(OC(=O)N(C)CCN)cc(O)c3c(=O)cc(-c4ccccc4Cl)oc23)[C@H](O)C1 [Comparative Example 13, reference compound] | 98.7

Next up:
For CC(C)[C@H](N)C(=O)O[C@@H]1CN(C)CC[C@@H]1c1c(O)cc(O)c2c(=O)cc(-c3ccccc3Cl)oc12 [Comparative Example 10, reference compound] , what is its reported Residual rate?
93.1
